selectivity ratio by entry:
- TEST PROTOCOL: Selectivity index, ratio of IC50 for cytotoxicity against rat L6 cells to IC50 for antiprotozoal activity against chloroquine resistant Plasmodium falciparum K1 infected in human erythrocytes
- Type: toxicity, cell-based
- TEST CONTEXT: read-out: Ratio IC50
Just the number, please, no unit after it.

N=C(N)c1ccc(-c2ccc(-c3nc4cc(C(=N)N)ccc4[nH]3)o2)cc1 :: 105
N=C(N)c1ccc2cc(-c3ccc(-c4ccc(C(=N)N)nc4)o3)[nH]c2c1 :: 3940
N=C(N)c1ccc(-c2ccc(-c3cc4cc(C(=N)N)ccc4[nH]3)o2)cc1 :: 5070
N=C(N)c1ccc(-c2ccc(-c3cc4ccc(C(=N)N)cc4[nH]3)o2)cc1 :: 2800
N=C(N)c1ccc(-c2ccc(-c3cc4ccc(C(=N)N)cc4[nH]3)s2)cc1 :: 1720
N=C(N)c1ccc(-c2ccc(-c3cc4ccc(C(=N)N)cc4[nH]3)o2)nc1 :: 5440
N=C(N)c1ccc(-c2ccc(-c3cc4cc(C(=N)N)ccc4[nH]3)o2)nc1 :: 8690
N=C(N)c1ccc(-c2ccc(-c3cc4cc(C(=N)N)ccc4[nH]3)[se]2)cc1 :: 5510

Q. Supply reported selectivity ratio belonging to this compound: N=C(N)c1ccc(-c2ccc(-c3cc4cc(C(=N)N)ccc4[nH]3)s2)cc1
A. 6070

Q. Supply reported selectivity ratio belonging to this compound: N=C(N)c1ccc(-c2ccc(-c3nc4ccc(C(=N)N)cc4[nH]3)s2)cc1
A. 1900

----------
- TEST PROTOCOL: Selectivity index, ratio of IC50 for cytotoxicity against rat L6 cells to IC50 for antiprotozoal activity against long slender blood stream form Trypanosoma brucei rhodesiense STIB900
- Format: toxicity, cell-based
- TEST CONTEXT: read-out: Ratio IC50
MEASUREMENT KIND: selectivity ratio
Just the number, please, no unit after it.

N=C(N)c1ccc(-c2ccc(-c3cc4cc(C(=N)N)ccc4[nH]3)s2)cc1 :: 2830
N=C(N)c1ccc(-c2ccc(-c3cc4ccc(C(=N)N)cc4[nH]3)o2)nc1 :: 2050

Please find the next compound below.
Q. Supply reported selectivity ratio belonging to this compound: N=C(N)c1ccc(-c2ccc(-c3cc4ccc(C(=N)N)cc4[nH]3)o2)cc1
A. 1080

----------
- System: Trypanosoma brucei rhodesiense
- TEST PROTOCOL: In vivo antiprotozoal activity against acute hemolymphatic stage Trypanosoma brucei rhodesiense STIB900 infected in NMRI mouse assessed as reduction of parasitaemia at 5 mg/kg, ip for 4 days consecutive and measured upto 60 days relative to control
- Type: functional
- TEST CONTEXT: time 4.0 day
Activity calls are given as the source filed them. The rule behind the calls is not given here.
MEASUREMENT KIND: Activity

Worked examples, 4 compounds total:
N=C(N)c1ccc2cc(-c3ccc(-c4ccc(C(=N)N)nc4)o3)[nH]c2c1 :: inactive
N=C(N)c1ccc(-c2ccc(-c3cc4ccc(C(=N)N)cc4[nH]3)o2)cc1 :: inactive
N=C(N)c1ccc(-c2ccc(-c3cc4ccc(C(=N)N)cc4[nH]3)s2)nc1 :: inactive
N=C(N)c1ccc(-c2ccc(-c3cc4ccc(C(=N)N)cc4[nH]3)s2)cc1 :: inactive

Please find the next compound below.
Q. Enter recorded Activity with Trypanosoma brucei rhodesiense for Cc1cc(C(=N)N)ccc1-c1ccc(-c2cc3ccc(C(=N)N)cc3[nH]2)o1 here.
A. inactive

----------
- Test system: Trypanosoma brucei rhodesiense
- TEST PROTOCOL: Antiprotozoal activity against long slender blood stream form Trypanosoma brucei rhodesiense STIB900 assessed as parasite growth inhibition incubated for 70 hrs by resazurin based microplate fluorometer analysis
- Assay type: functional, organism-based
- TEST CONTEXT: STIB900, 70 h
MEASUREMENT KIND: pIC50
By convention, pIC50 is the negative base-10 log of a molar concentration.

Worked examples, 5 molecules total:
Cc1cc(C(=N)N)ccc1-c1ccc(-c2cc3ccc(C(=N)N)cc3[nH]2)o1 :: 8.22
N=C(N)c1ccc(-c2ccc(-c3cc4cc(C(=N)N)ccc4[nH]3)o2)cc1 :: 8.70
N=C(N)c1ccc(-c2ccc(-c3cc4cc(C(=N)N)ccc4[nH]3)[se]2)cc1 :: 8.52
N=C(N)c1ccc(-c2ccc(-c3cc4ccc(C(=N)N)cc4[nH]3)o2)cc1 :: 7.92
N=C(N)c1ccc2cc(-c3ccc(-c4ccc(C(=N)N)nc4)o3)[nH]c2c1 :: 8.15

Q. Enter recorded pIC50 with Trypanosoma brucei rhodesiense for N=C(N)c1ccc(-c2ccc(-c3cc4ccc(C(=N)N)cc4[nH]3)s2)nc1 here.
A. 7.82

Q. Enter recorded pIC50 with Trypanosoma brucei rhodesiense for N=C(N)c1ccc(-c2ccc(-c3nc4ccc(C(=N)N)cc4[nH]3)s2)cc1 here.
A. 7.57

Q. Enter recorded pIC50 with Trypanosoma brucei rhodesiense for N=C(N)c1ccc(-c2ccc(-c3cc4ccc(C(=N)N)cc4[nH]3)o2)nc1 here.
A. 7.77

Q. Enter recorded pIC50 with Trypanosoma brucei rhodesiense for COc1cc(C(=N)N)ccc1-c1ccc(-c2cc3ccc(C(=N)N)cc3[nH]2)o1 here.
A. 7.41

Q. Enter recorded pIC50 with Trypanosoma brucei rhodesiense for N=C(N)c1ccc(-c2ccc(-c3cc4ccc(C(=N)N)cc4[nH]3)s2)cc1 here.
A. 7.92
